- experiment.summary: CCTE_Simmons_CellTiterGLO_HEK293T: Viability Assessment in CCTE's Assays for Thyroperoxidase (TPO) Inhibition, Simmons Lab (AID 2283665)
Records with an inconclusive call do not appear. Active and inactive are the calls of the source. Rule for the calls: active = hit-call score of the fitted dose curve at least 0.9, where 1 is the maximum; inconclusive = response in the unintended direction; inactive = score below 0.9.
Could you please pick one outcome from this set? class 1 = active, class 0 = inactive

Past entries and their recorded results:
Request: Record lookup: outcome of this test for O=C(c1ccccc1)c1ccc(O)c(O)c1O ?
Response: class 0

Request: Field: outcome | Entry: CCCCC/C=C\C/C=C\CCCCCCCC(=O)OC
Response: class 1

Request: Lab log entry: CNC(=S)NN — outcome as called in the assay?
Response: class 0

Then there is this compound:
Request: Call for entry CC/C=C\C/C=C\C/C=C\CCCCCCCC(=O)O :
Response: class 0

---

- experiment.summary: ATG_Ets_CIS: Attagene CIS-FACTORIAL HepG2 Assay for human Erythroblast Transformation Specific (ETS) (AID 2282941)
- test.settings: HepG2 ETS cis-reporter transcription, actives raise or lower the signal
Activity calls are given as the source filed them. How the source made its calls: active means hit-call score of the fitted dose curve at least 0.9, where 1 is the maximum; inactive means score below 0.9.
measure: outcome

Request: I am curious: what outcome value has been reported for Nc1ccc(N=Nc2ccccc2)c(N)n1 ?
Response: inactive

Request: If you can, please state the reported outcome value of O=C1CCCN1CCO .
Response: inactive

Request: Quick check: outcome of CCc1c(C(=O)O)c(=O)cnn1-c1ccc(Cl)cc1 ?
Response: inactive

---

- tested.target: human Peroxisome Proliferator-activated Receptor alpha (PPARa), PPARA (gene 5465)
- experiment.summary: NVS_NR_hPPARa: NovaScreen (NVS) Nuclear Receptor Binding Assay for human Peroxisome Proliferator-activated Receptor alpha (PPARa) (AID 2283359);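 note: activity means loss of TR-FRET signal versus DMSO baseline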
Inconclusive results are not listed. Activity calls are given as the source filed them. How the source made its calls: active means hit-call score of the fitted dose curve at least 0.9, where 1 is the maximum; inconclusive means response in the unintended direction; inactive means score below 0.9.
Select the correct class. Options are active, inactive and nothing else.

The following compounds have reported results that may help.
Request: What call does the record list for CCCCCCCC/C=C\CCCCCCCC(=O)O ?
Response: active

Request: What did this assay record as the result for CC(C)c1ccc2c(C(C)C)cc(C(C)C)c(S(=O)(=O)O)c2c1 ?
Response: active

Request: Which outcome was assigned to CC/C=C\C/C=C\C/C=C\CCCCCCCC(=O)O in this test?
Response: inactive

Request: Fill in: this test's call for Cc1ccc(C(C)(C)C)cc1 is ___
Response: inactive

Request: Hi, sorry to bother you, what did the test record for Cc1cc(C)c(C)cc1C ?
Response: inactive

We now examine a further compound.
Request: Please share the test call associated with CCCCC/C=C\C/C=C\CCCCCCCC(=O)OC .
Response: inactive

---

- experiment.summary: ATG_TGFb_CIS: Attagene CIS-FACTORIAL HepG2 Assay for human Transforming Growth Factor (TGF) (AID 2282967)
- test.settings: HepG2 Attagene CIS TGFb reporter, mRNA transcription; actives raise or lower the signal
The source made the active and inactive calls. How the source made its calls: active means hit-call score of the fitted dose curve at least 0.9, where 1 is the maximum; inactive means score below 0.9.
Outcome (select one): YES = active, NO = inactive

Request: Would you mind telling me which call this test gave CCCCCCCCc1ccc(Nc2ccc(CCCCCCCC)cc2)cc1 ?
Response: NO

Request: What did this assay record as the result for Nc1cccc(C(F)(F)F)c1 ?
Response: NO

Request: Recorded call for SCCc1cnccn1 ?
Response: NO

Request: Please state the recorded outcome for this compound: O=C(O)C(c1ccc(Cl)cc1)c1ccc(Cl)cc1
Response: NO

Request: Name the outcome recorded for O=C(Cl)c1cc(C(=O)Cl)cc(C(=O)Cl)c1 in the assay.
Response: YES

Request: How did this test come out for CC1=NC(C)OC1C (centres undefined) ?
Response: NO

More entries:
Request: I would be grateful if you could indicate the recorded call for O=[N+]([O-])c1ccc(CO)cc1 .
Response: NO

Request: Please share the test call associated with CCOc1nc(F)cc2nc(S(=O)(=O)Nc3c(Cl)cccc3C(=O)OC)nn12 .
Response: NO

Request: Dear colleague, could you share the recorded outcome for CCCOCCOCCOCCO when you have a moment?
Response: NO

Request: What is the recorded call for this compound in the test? CCCCC(CC)CCC(CC(C)C)OS(=O)(=O)O (centres undefined)
Response: NO

Request: Any idea what this test logged for CC(=O)c1ccc2c(c1)CCCC2 ?
Response: NO

Request: Outcome logged for CC(=O)Nc1ccc2c(c1)Cc1cc(NC(C)=O)ccc1-2 in this assay:
Response: NO

Request: Entry Cc1ccc2c(c1)C(=O)c1ccccc1C2=O : call = ?
Response: NO

Request: What is the recorded call for this compound in the test? c1cc(C(c2ccc(OCC3CO3)cc2)C(c2ccc(OCC3CO3)cc2)c2ccc(OCC3CO3)cc2)ccc1OCC1CO1 (centres undefined)
Response: NO

Request: Outcome logged for CCCCCC/C=C\CCCCCCCC(=O)O in this assay:
Response: NO

Request: Outcome? CC1=CC[C@H]2C[C@@H]1C2(C)C
Response: NO

Request: Recorded call for Cc1ccc(OC(=O)CC(C)C)cc1 ?
Response: NO

Request: Name the outcome recorded for CC(C)(C)C1CCCCC1=O (centres undefined) in the assay.
Response: NO

Request: Lab log entry: CCOC(=O)CC — outcome as called in the assay?
Response: NO

Request: Entry Cc1ccc(C2OC[C@@H]3OC(c4ccc(C)cc4)O[C@H]([C@H](O)CO)[C@@H]3O2)cc1 (some centres undefined) : call = ?
Response: NO

Request: Answer briefly: the call reported for CC=C1CC2C=CC1C2 (centres undefined) in this assay.
Response: NO

Request: For CCCC(=O)OCc1ccccc1 , which call appears in the assay record?
Response: NO
